B1: Hairpin Ribozyme (parent)
chain: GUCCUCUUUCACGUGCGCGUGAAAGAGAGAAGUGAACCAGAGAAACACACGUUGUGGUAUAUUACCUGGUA

variants of: B1; experiment: self-cleavage, relative activity (ratio to wild type); higher = more cleavage; co-transcriptional
testReadout: self-cleavage
# respond with the number and nothing more

Sample answers from the record:
mutantLabel | self-cleavage
C3U U20A | 0.374
A64G U70G | 0.47
A61U U67G | 0.129
G15U A24C | 1.08
C10G G57A | 0.0913
C10G G25U | 0.481
A36U G42A | 0.115
A24C A35C | 0.778
C12A G40A | 0.237
A36C G54U | 0.33

## Input Data request, read-out self-cleavage, for G56U A71G
## Output 0.127
